target: Cdk2(R122C) (C177A) (Homo sapiens, UniProt P24941, C177A/R122C); construct: poly-histidine; made in house; host or cells: E. coli; assay: Kinetic thiol consumption assay with Cdk2 mutant R122C; type: binding; set-up: key: rate constant with Cdk2 ÷ rate constant with model thiol (fold); conditions: Cdk2 R122C, additional mutation C177A
measured.parameter: Rate enhancement, Cdk2 R122C

### Prompt Identify the measured Rate enhancement, Cdk2 R122C of C=CC(=O)N1CCCN(Cc2noc(C3CC3)n2)CC1 [CA-079] for Cdk2(R122C) (C177A) (Homo sapiens, UniProt P24941, C177A/R122C).
### Response 0.4828

### Prompt Also C=CC(=O)NCCCN(C(=O)C1CCC1)C1CC1 [CA-060] ?
### Response 0.4675

### Prompt Also C=CC(=O)N1CCC2CCC(C1)N2C (stereo not shown) [CA-143] ?
### Response 0.2049

### Prompt Also C=CC(=O)N1CC(CCN2CCCC2=O)c2ccccc21 (stereo not shown) [CA-089] ?
### Response 0.4622
